System: NCI-H460 lung
Assay: NCI tumour cell line growth inhibition, 48 h
property-measured: log10 TGI (log10 of the value in µM)
log10 TGI, µM

As a guide, the following entries are already answered.
>>> value_observed("O=C(CCCCCCN1CC(=O)N2[C@@H](c3ccc(Cl)c(Cl)c3)c3[nH]c4ccccc4c3C[C@H]2C1=O)NO")
0.96
>>> value_observed("Cc1cccc2c3c(sc12)C(c1ccc(Cl)cc1)C(C#N)=C(N)O3 (stereo not given)")
0.59
>>> value_observed("CCCCCCCC1(N=[N+]=[N-])C(=O)Nc2ccccc2C1=O (stereo not given)")
1.73
>>> value_observed("C=C1CC(c2ccc(OCCCN3C(=O)c4ccccc4C3=O)cc2)OC1=O (stereo not given)")
0.93
>>> value_observed("CC(=O)NC1C(OCc2ccccc2)OC(CO)C(O)C1OC(C)C(=O)NC(C)C(=O)NC(CCC(=O)NCCCCNc1c2ccccc2nc2cccc([N+](=O)[O-])c12)C(N)=O (stereo not given)")
-1.44

API: the following record is the query input.
Value lookup for log10 TGI; key = `COc1ccc(-c2nc(/C=C3\SC(=NCc4ccccc4)NC3=O)c3ccccn23)cc1` 0.35
